Listed below: solubility thermodynamic at 24 h values for each entry.
# TEST DESCRIPTION: Intrinsic solubility of the compound in standard phosphate buffer at pH 6.8 at 37 degC after 24 hrs by shake-flask method
# Type: physicochemical
# RUN PARAMETERS: read-out: Intrinsic_solubility

Lookup result for CCC(=O)n1ncc2c(O)ncnc21 ; measured solubility thermodynamic at 24 h: > 65 µg/mL

Lab note: CCCC(=O)n1ncc2c(O)ncnc21 gave solubility thermodynamic at 24 h of > 65 µg/mL

CC(=O)n1ncc2c(O)ncnc21 yielded solubility thermodynamic at 24 h of > 65 µg/mL

----------
# TEST DESCRIPTION: Intrinsic solubility of the compound in standard phosphate buffer at pH 6.8 at 25 degC after 24 hrs by shake-flask method
# Format: physicochemical
# RUN PARAMETERS: read-out: Intrinsic_solubility
MEASURED ATTRIBUTE: solubility thermodynamic at 24 h

These solved cases illustrate the format of a correct answer.
SMILES INPUT	solubility thermodynamic at 24 h
CCCC(=O)n1ncc2c(O)ncnc21	> 65 µg/mL
CCC(=O)n1ncc2c(O)ncnc21	> 65 µg/mL

Next up:
Note to self: solubility thermodynamic at 24 h recorded for CC(=O)n1ncc2c(O)ncnc21 was > 65 µg/mL
